Data origin: paper PMC9482650

System: GIPC2, Q8TF65
Sequence (Q8TF65 112-203): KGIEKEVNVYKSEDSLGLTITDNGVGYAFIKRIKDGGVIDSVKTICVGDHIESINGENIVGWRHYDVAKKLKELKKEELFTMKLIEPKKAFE
Assay Details: holdup assay
Set-up: key: below the threshold = too weak to quantify, mostly under pKd 3.1 to 4
Recorded Conditions: plain residues with an end cap or a label only (N-terminal biotin on a linker: ado-ado)
Observed Property: pKd

Take a look at these entries with their results.
GTGYDRKDYV [CLDN3, O15551]
below the threshold
DDASLPVSDV [PLEKHA1, Q9HB21]
below the threshold
LKDDELKTKL [SLCO1A2, P46721]
below the threshold
EDGESWEYQI [TRPV6, Q9H1D0]
below the threshold
SLNANEVEWF [RNF130, Q86XS8]
below the threshold
KKMLQRRTLL [OR8G1, Q15617]
below the threshold
LPAVCYDIDI [PTTG2, Q9NZH5]
4.08
QSGLYESEEL [MYOT, Q9UBF9]
below the threshold
PTPDLPQTRV [KLHDC7A, Q5VTJ3]
below the threshold
EDPRVEVTQF [SLC22A9, Q8IVM8]
below the threshold

Batch lookup, pKd per entry.
1. TGLWKHETTV [ADGRA3, Q8IWK6]
2. NVYGIESVKI [GRIA2, P42262]
3. GEDRSPPTAL [MKNK1, Q9BUB5]
4. VLYPREGTEV [FOXI1, Q12951]
5. RDPPAEWTRV [PTPN18, Q99952]

Response:
1: 4.1; 2: below the threshold; 3: below the threshold; 4: 3.49; 5: below the threshold

Prompt: // pKd lookup, key: SRSVVESDEL [MYPN, Q86TC9]
Response: below the threshold
